TEST: MRT in ICR mouse at 5 mg/kg, iv by LC-MS/MS analysis
Format: ADME, organism-based
EXPERIMENTAL_CONDITIONS: in vivo
REPORTED_METRIC: MRT (h)

sample_smiles=CCCN(CCCCNC(=O)c1cc2ccccc2[nH]1)C[C@@H]1C[C@H]1c1cccc(Cl)c1Cl.Cl unit_symbol=h meas_value=3.4
sample_smiles=CCCN(CCCCNC(=O)c1ccc(-c2ccccn2)cc1)C[C@@H]1C[C@H]1c1cccc(Cl)c1Cl.Cl unit_symbol=h meas_value=0.808
sample_smiles=CCCN(CCCCNC(=O)c1ccc(-c2ccccn2)cc1)C[C@@H]1C[C@H]1c1cc(F)ccc1OC.Cl unit_symbol=h meas_value=0.415
sample_smiles=CCCN(CCCCNC(=O)c1ccc2ccccc2c1)C[C@@H]1C[C@H]1c1cccc(Cl)c1Cl.Cl unit_symbol=h meas_value=2.58

====

Below, each of the compounds is paired with its reported bioavailability value.
TEST: Oral bioavailability in ICR mouse at 10 mg/kg by LC-MS/MS analysis
Type: ADME, organism-based
EXPERIMENTAL_CONDITIONS: in vivo
REPORTED_METRIC: bioavailability (%)

sample_smiles=CCCN(CCCCNC(=O)c1ccc2ccccc2c1)C[C@@H]1C[C@H]1c1cccc(Cl)c1Cl.Cl meas_value=6.6
sample_smiles=CCCN(CCCCNC(=O)c1ccc(-c2ccccn2)cc1)C[C@@H]1C[C@H]1c1cc(F)ccc1OC.Cl meas_value=3.8
sample_smiles=CCCN(CCCCNC(=O)c1cc2ccccc2[nH]1)C[C@@H]1C[C@H]1c1cccc(Cl)c1Cl.Cl meas_value=34.1
sample_smiles=CCCN(CCCCNC(=O)c1ccc(-c2ccccn2)cc1)C[C@@H]1C[C@H]1c1cccc(Cl)c1Cl.Cl meas_value=13

====

ASSAY_TARGET: D(1A) dopamine receptor (Homo sapiens)
Sequence (P21728 whole entry): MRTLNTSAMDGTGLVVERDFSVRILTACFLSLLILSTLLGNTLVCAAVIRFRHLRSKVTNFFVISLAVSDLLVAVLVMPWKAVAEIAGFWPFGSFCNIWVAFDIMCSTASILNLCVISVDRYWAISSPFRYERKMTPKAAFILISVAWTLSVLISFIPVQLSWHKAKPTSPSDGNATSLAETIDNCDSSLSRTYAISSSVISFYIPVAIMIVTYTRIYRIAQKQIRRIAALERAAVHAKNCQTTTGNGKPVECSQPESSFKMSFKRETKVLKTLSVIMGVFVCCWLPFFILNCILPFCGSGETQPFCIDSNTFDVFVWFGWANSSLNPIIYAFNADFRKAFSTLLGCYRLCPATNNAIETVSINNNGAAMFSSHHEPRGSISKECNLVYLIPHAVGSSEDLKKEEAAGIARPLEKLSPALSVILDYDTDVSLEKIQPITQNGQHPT
TEST: Displacement of [3H]-SCH23390 from recombinant human D1 receptor transiently expressed in HEKT cell membranes measured after 90 mins by microbeta scintillation counting method
pKi: −log10 of the molar value.
Below, each of the molecules is paired with its reported pKi value.
REPORTED_METRIC: pKi

molecule="CCOc1ccc(F)cc1C1CC1CN(C)CCCSc1nnc(-c2ccccc2)n1C (centres undefined)" assay_target="D(1A) dopamine receptor (Homo sapiens)" limit_operator== meas_value=5.95
molecule="CCCN(CCCSc1nnc(-c2ccccc2)n1C)CC1CC1c1cc(Cl)ccc1OC (centres undefined)" assay_target="D(1A) dopamine receptor (Homo sapiens)" limit_operator== meas_value=5.72
molecule="CCCN(CCCCNC(=O)c1ccc(-c2ccccn2)cc1)CC1CC1c1cc(Cl)ccc1OC (centres undefined)" assay_target="D(1A) dopamine receptor (Homo sapiens)" limit_operator=< meas_value=5.30
molecule="CCCN(CCCCNC(=O)c1ccc(-c2ccccn2)cc1)CC1CC1c1cc(F)ccc1OC (racemic)" assay_target="D(1A) dopamine receptor (Homo sapiens)" limit_operator== meas_value=5.75
molecule=CCCN(CCCCNC(=O)c1ccc(-c2ccccn2)cc1)C[C@@H]1C[C@H]1c1cccc(Cl)c1Cl.Cl assay_target="D(1A) dopamine receptor (Homo sapiens)" limit_operator== meas_value=5.87
molecule=CCCN(CCCCNC(=O)c1ccc(-c2ccccn2)cc1)C[C@H]1C[C@@H]1c1cc(F)ccc1OC.Cl assay_target="D(1A) dopamine receptor (Homo sapiens)" limit_operator== meas_value=5.97
molecule="CCCN(CCCCNC(=O)c1ccc2ccccc2c1)CC1CC1c1cc(Cl)ccc1OC (centres undefined)" assay_target="D(1A) dopamine receptor (Homo sapiens)" limit_operator== meas_value=6.03
molecule="CCCN(CCCCNC(=O)c1ccc2ccccc2c1)CC1CC1c1ccc(C(F)(F)F)cc1 (centres undefined)" assay_target="D(1A) dopamine receptor (Homo sapiens)" limit_operator== meas_value=5.77
molecule="COc1ccc(F)cc1C1CC1CN(CCCSc1nnc(-c2ccccc2)n1C)C(C)C (centres undefined)" assay_target="D(1A) dopamine receptor (Homo sapiens)" limit_operator=< meas_value=5.30
